Entry source: paper PMC5974556

Experiment: Water solubility, shake flask method in 0.1 M phosphate buffer pH 6.8
Type: physicochemical
Conditions: 37 °C, pH 6.8, aqueous buffer, thermodynamic from solid
Quantity: solubility at 24 h (mM)
Respond with the bare value in mM.

### Prompt For the compound "CC(C)CNC(=C\C(=O)/C=C/c1cccnc1)/C=C/c1cccnc1" , what solubility at 24 h is on record?
### Response 0.303

### Prompt Another compound to look at: "O=C(/C=C(/C=C/c1cccnc1)NCCO)/C=C/c1cccnc1"
### Response 4.85

### Prompt Same question, "O=C(/C=C(/C=C/c1cccnc1)NCCCO)/C=C/c1cccnc1" this time
### Response 4.27
